Experimental Protocol: activity coefficient (dimensionless); of the first substance listed, at infinite dilution; xn = mol fraction of the nth substance listed
Run Conditions: 363.15 K; 101.33 kPa; Liquid; Chromatography; x1 = 0
Measure Name: activity coefficient
Reply: number alone, nothing else.

Solved cases below.
Compound	Measure Name	Readout Value
CCCO [propan-1-ol] + CCC[n+]1ccn(C)c1.[Br-]	activity coefficient	0.244
C1COCCO1 [1,4-dioxane] + CCC[n+]1ccn(C)c1.[Br-]	activity coefficient	1.23
Cc1ccc(C)cc1 [1,4-dimethylbenzene] + CCC[n+]1ccn(C)c1.[Br-]	activity coefficient	6.3
CCCCCCCCCC [decane] + CCC[n+]1ccn(C)c1.[Br-]	activity coefficient	108

Request: Would you kindly share the measured activity coefficient for C=Cc1ccccc1 [styrene] + CCC[n+]1ccn(C)c1.[Br-] ?
Result: 2.17

Request: Would you kindly share the measured activity coefficient for Cc1ccccc1C [1,2-dimethylbenzene] + CCC[n+]1ccn(C)c1.[Br-] ?
Result: 4.97

Request: Would you kindly share the measured activity coefficient for CCCCCCC [heptane] + CCC[n+]1ccn(C)c1.[Br-] ?
Result: 92.5

Request: Would you kindly share the measured activity coefficient for ClC(Cl)(Cl)Cl [tetrachloromethane] + CCC[n+]1ccn(C)c1.[Br-] ?
Result: 1.17

Request: Would you kindly share the measured activity coefficient for C1CCOC1 [tetrahydrofuran] + CCC[n+]1ccn(C)c1.[Br-] ?
Result: 2.47

Request: Would you kindly share the measured activity coefficient for CCC(C)O (stereo unspecified) [butan-2-ol] + CCC[n+]1ccn(C)c1.[Br-] ?
Result: 0.462

Request: Would you kindly share the measured activity coefficient for CCc1ccccc1 [ethylbenzene] + CCC[n+]1ccn(C)c1.[Br-] ?
Result: 6.19

Request: Would you kindly share the measured activity coefficient for CC(C)CO [2-methyl-1-propanol] + CCC[n+]1ccn(C)c1.[Br-] ?
Result: 0.368

Request: Would you kindly share the measured activity coefficient for Cc1cccc(C)c1 [1,3-dimethylbenzene] + CCC[n+]1ccn(C)c1.[Br-] ?
Result: 6.47

Request: Would you kindly share the measured activity coefficient for CCCCO [butan-1-ol] + CCC[n+]1ccn(C)c1.[Br-] ?
Result: 0.379

Request: Would you kindly share the measured activity coefficient for c1ccccc1 [benzene] + CCC[n+]1ccn(C)c1.[Br-] ?
Result: 2.11

Request: Would you kindly share the measured activity coefficient for CC(C)CC(C)(C)C [2,2,4-trimethylpentane] + CCC[n+]1ccn(C)c1.[Br-] ?
Result: 101
